# study target: UniProtKB P25021
# Sequence (P25021 whole entry): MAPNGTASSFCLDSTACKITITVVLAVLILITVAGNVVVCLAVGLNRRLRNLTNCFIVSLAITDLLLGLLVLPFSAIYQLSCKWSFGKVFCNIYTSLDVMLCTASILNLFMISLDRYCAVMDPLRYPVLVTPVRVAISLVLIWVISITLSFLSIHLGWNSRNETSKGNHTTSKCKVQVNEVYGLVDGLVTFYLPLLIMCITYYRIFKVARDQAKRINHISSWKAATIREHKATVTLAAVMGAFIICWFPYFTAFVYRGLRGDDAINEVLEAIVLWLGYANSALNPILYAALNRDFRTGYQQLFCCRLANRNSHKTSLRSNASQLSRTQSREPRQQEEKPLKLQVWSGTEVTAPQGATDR
# Format: functional, cell-based

# compound, AC50
data = [
    ("CCC(=O)O[C@@H](O[P@](=O)(CCCCc1ccccc1)CC(=O)N1C[C@H](C2CCCCC2)C[C@H]1C(=O)O)C(C)C", "> 30 µM"),
    ("CC(=O)Nc1c(I)c(C(=O)N[C@H]2C(O)O[C@H](CO)[C@@H](O)[C@@H]2O)c(I)c(N(C)C(C)=O)c1I (stereo partly drawn) [METRIZAMIDE]", "> 10 µM"),
    ("CN(C)c1cc(CNCC(C)(C)C)c(O)c2c1C[C@H]1C[C@H]3[C@H](N(C)C)C(O)=C(C(N)=O)C(=O)[C@@]3(O)C(O)=C1C2=O", "> 30 µM"),
    ("CCCCC1(CC)C(=O)NC(=O)NC1=O", "> 30 µM"),
    ("Clc1ccc(C(Cn2ccnc2)OCc2ccc(Sc3ccccc3)cc2)c(Cl)c1 (stereo not drawn)", "> 30 µM"),
    ("O=C1Nc2ccc(Cl)cc2C(c2ccccc2)=NC1O (stereo not drawn)", "> 10 µM"),
    ("CO/N=C(\\C(=O)N[C@@H]1C(=O)N2C(C(=O)O)=C(COC(N)=O)CS[C@H]12)c1ccco1", "> 30 µM"),
    ("CS(=O)(=O)OCCCCOS(C)(=O)=O", "> 30 µM"),
]
